- Read-out: Vascular cell adhesion molecule 1 (VCAM1), VCAM1 (gene 7412)
- method description: BSK_LPS_VCAM1: BioMAP Diversity Plus: LPS Assay for Vascular cell adhesion molecule 1 (VCAM1) Biomarker Activity (AID 2283086)
- test context: primary human HUVEC with PBMC; actives raise or lower the signal
The source made the active and inactive calls. How the source made its calls: active means hit-call score of the fitted dose curve at least 0.9, where 1 is the maximum; inactive means score below 0.9.
Your answer must be one of the following: active, inactive

> print(dat)
                                   molecule  class.label
1  O=C(NC(=O)c1c(F)cccc1F)Nc1ccc(OC(F)(F)C(F)OC(F)(F)F)c(Cl)c1 (stereo not drawn)     inactive

// return assay outcome for O=[N+]([O-])c1c(Cl)c(Cl)c(Cl)c(Cl)c1Cl
active

Please share the test call associated with O=C(Nc1ccccc1)Nc1cnns1 .
inactive

What is the recorded call for this molecule in the test? Clc1ccccc1-c1nnc(-c2ccccc2Cl)nn1
inactive

Could you please tell me the result logged for COC(=O)c1ccccc1S(=O)(=O)NC(=O)Nc1nc(C)nc(OC)n1 in this assay?
inactive

I would be grateful if you could indicate the recorded call for Oc1cc(Cl)ccc1Oc1ccc(Cl)cc1Cl .
active

GET /call?item= CC1(c2ccc(Oc3ccccc3)cc2)OC(=O)N(Nc2ccccc2)C1=O (stereo not drawn) returns the recorded outcome of this test.
active

Called result for CCN(CC)C(=O)SCc1ccc(Cl)cc1
inactive

// return assay outcome for O=C(O)COc1ccc(Cl)cc1Cl
inactive
